# assay-system: trypsin (Bos taurus)
# Sequence (P00760 24-246): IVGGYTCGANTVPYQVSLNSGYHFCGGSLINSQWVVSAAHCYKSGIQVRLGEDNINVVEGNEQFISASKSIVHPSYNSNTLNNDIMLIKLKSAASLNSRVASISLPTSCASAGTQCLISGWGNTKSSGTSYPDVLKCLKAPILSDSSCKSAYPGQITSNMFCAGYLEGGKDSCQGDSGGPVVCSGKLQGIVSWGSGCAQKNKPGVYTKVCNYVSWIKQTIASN
# method-summary: anti-trypsin activity, hydrolysis of TAME (tosylarginine methyl ester)
# Assay type: biochemical
# study-conditions: hydrolysis of TAME; read-out: Try: molar concentration inhibiting 50% of enzyme activity (IC50)
Structures can show the parent of a compound that is named as a salt.
The entries below are paired with their reported pIC50.
// pIC50 here means minus log10 of the molar concentration (mol/L)

Example entries begin here.
compound	quantity-kind	value
COC(=O)Cc1ccc(C(=O)NCc2ccc(C(=O)Oc3ccc4cc(C(=N)N)ccc4c3)o2)cc1 [Example 4, hydrochloride]	pIC50	6.47
N=C(N)NC(CCC(=O)O)C(=O)NCc1ccc(C(=O)Oc2ccc3cc(C(=N)N)ccc3c2)o1 (stereo not drawn) [Example 29, dihydrobromide]	pIC50	5.92
CC(C)(C)OC(=O)CCC(=O)NCc1ccc(C(=O)Oc2ccc3cc(C(=N)N)ccc3c2)o1 [Example 18, hydrochloride]	pIC50	6.40
Cl.N=C(N)c1ccc2cc(OC(=O)c3ccc(CNC(=O)Cc4ccc(C(=O)O)cc4)o3)ccc2c1 [Example 6, hydrochloride]	pIC50	6.41
N=C(N)c1ccc2cc(OC(=O)c3ccc(CNC(=O)C=Cc4ccc(C(=O)O)cc4)o3)ccc2c1 [Example 8, hydrochloride]	pIC50	5.68
Cl.N=C(N)c1ccc2cc(OC(=O)c3ccc(CNC(=O)CC(=O)O)o3)ccc2c1 [Example 17, hydrochloride]	pIC50	6.33

Query (compound): CC(C)(C)OC(=O)CC(=O)NCc1ccc(C(=O)Oc2ccc3cc(C(=N)N)ccc3c2)o1 [Example 15, hydrochloride] ; field requested: pIC50
6.15

Requested read-out: pIC50. Entry: Cl.N=C(N)c1ccc2cc(OC(=O)c3ccc(CNC(=O)[C@H]4CC[C@H](C(=O)O)CC4)o3)ccc2c1 [Example 11, hydrochloride]
6.18

Requested read-out: pIC50. Entry: Cl.N=C(N)c1ccc2cc(OC(=O)c3ccc(CNC(=O)CCCC(=O)O)o3)ccc2c1 [Example 22, hydrochloride]
6.37

----------
# Test system: kallikrein
# method-summary: anti-kallikrein activity, hydrolysis of TAME (tosylarginine methyl ester)
# Assay type: biochemical
# study-conditions: hydrolysis of TAME; read-out: Kal: molar concentration inhibiting 50% of enzyme activity (IC50)
# Experimental: The values in Table 1 represent molar concentrations (IC50) of test compounds which inhibit 50% of the activity of each enzyme to hydrolyze TAME (tosylarginine methyl ester). The anti-trypsin, anti-plasmin, anti-kallikrein and anti-thrombin activities were determined according to the method of Muramatsu et al. (J. Biochem. (1965), volume 58, page 214).
pIC50: −log10 of the molar value. Where a name gives a salt, the structure may show the parent alone.
Classify by measured pIC50: Fulfilled if it is equal to or exceeds 6, Not fulfilled if it is smaller.

molecule	assigned-label
N=C(N)c1ccc2cc(OC(=O)c3ccc(CNC(=O)C=Cc4ccc(C(=O)O)cc4)o3)ccc2c1 [Example 8, hydrochloride]	Not fulfilled
CC(C)(C)OC(=O)CC(=O)NCc1ccc(C(=O)Oc2ccc3cc(C(=N)N)ccc3c2)o1 [Example 15, hydrochloride]	Fulfilled

Hi team, for CC(C)(C)OC(=O)C=Cc1ccc(C(=O)NCc2ccc(C(=O)Oc3ccc4cc(C(=N)N)ccc4c3)o2)cc1 [Example 1, hydrobromide] , is the recorded pIC50 at or above 6?
Fulfilled

Hello, I need to know if Cc1oc(=O)oc1COC(=O)CCC(=O)NCc1ccc(C(=O)Oc2ccc3cc(C(=N)N)ccc3c2)o1 [Example 33, hydrochloride] has measured pIC50 not below 6. Thanks!
Fulfilled
